- METHOD_NOTES: physchem
- PROTOCOL_CONDITIONS: phosphate buffer, pH 7
PROPERTY_MEASURED: degraded at 336 h (%)

1) O=C1O[C@H]([C@@H](O)CO)C(O)=C1O[C@H]1O[C@H](CO)[C@@H](O)[C@H](O)[C@H]1O :: 1.6

====

- METHOD_NOTES: Dynamic test, intravenous administration to rats (blood level)
- Type: in vivo, Male Wister/ST rats
- PROTOCOL_CONDITIONS: rat, blood, 15 min after administration, read-out: blood level of 6-Octa-AA-2G
PROPERTY_MEASURED: concentration at 0.25 h

1) CCCCCCCC(=O)OC[C@H](O)[C@H]1OC(=O)C(O[C@H]2O[C@H](CO)[C@@H](O)[C@H](O)[C@H]2O)=C1O :: 38.2 µM

====

- METHOD_NOTES: physchem
- PROTOCOL_CONDITIONS: phosphate buffer, pH 7
PROPERTY_MEASURED: degraded at 48 h (%)

1. O=C1O[C@H]([C@@H](O)CO)C(O)=C1O[C@H]1O[C@H](CO)[C@@H](O)[C@H](O)[C@H]1O :: 3.9

====

- METHOD_NOTES: physchem
- PROTOCOL_CONDITIONS: phosphate buffer, pH 7
- Method: To the solution was added 9.8 ml of 100 mM phosphate buffered aqueous solution (pH 7.0), and the aqueous solution was sterilized, and then incubated at 37° C. or 60° C. while the aqueous solution was sampled at prescribed times, followed by freezing the samples instantly at -30° C. for storing. Thereafter, the aqueous solution stored by freezing was thawed, analyzed on HPLC, and determined for the remaining content of the acyl derivatives based on the absorbance at a wavelength of 254 nm.
PROPERTY_MEASURED: degraded at 12 h (%)

1) O=C1O[C@H]([C@@H](O)CO)C(O)=C1O :: 75.9

====

- METHOD_NOTES: Dynamic test, intravenous administration to rats (blood level)
- Type: in vivo, Male Wister/ST rats
- PROTOCOL_CONDITIONS: rat, blood, two minutes after administration, read-out: blood level of 6-Octa-AA-2G
- Protocol: Male Wister/ST rats, 12-14-week-old, were fasted for 16 hours and, under an anesthetic, 200-μl blood was taken from their hearts using a syringe injected with a physiological saline containing 600 units/ml heparin. […]
PROPERTY_MEASURED: concentration at 2 min (µM)

1) CCCCCCCC(=O)OC[C@H](O)[C@H]1OC(=O)C(O[C@H]2O[C@H](CO)[C@@H](O)[C@H](O)[C@H]2O)=C1O [Example 6-Octa-AA-2G] :: 525

Where do the numbers come from? From patent US6248905A.
